Biological target: 5-HT1A (serotonin 1A) receptors (Homo sapiens)
Sequence (P08908 whole entry): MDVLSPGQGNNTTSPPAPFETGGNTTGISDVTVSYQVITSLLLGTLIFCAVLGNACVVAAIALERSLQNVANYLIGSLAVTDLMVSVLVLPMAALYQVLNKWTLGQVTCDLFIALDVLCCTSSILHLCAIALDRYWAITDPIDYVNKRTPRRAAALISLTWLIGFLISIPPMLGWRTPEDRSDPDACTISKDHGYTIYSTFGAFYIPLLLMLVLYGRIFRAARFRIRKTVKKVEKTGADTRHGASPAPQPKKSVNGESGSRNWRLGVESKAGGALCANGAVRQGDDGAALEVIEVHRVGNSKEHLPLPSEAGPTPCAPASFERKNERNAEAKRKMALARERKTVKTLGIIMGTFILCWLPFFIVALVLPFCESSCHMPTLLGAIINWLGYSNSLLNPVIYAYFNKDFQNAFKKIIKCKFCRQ
Experiment: serotonin binding activity, 5-HT1A
Details: average test results; read-out: pKi 5-HT1A (converted)
Can you tell me log10 of Ki for the items I'm about to list?
Lab note - Ki converted to log10 from values in nM.

| given.smiles | log10 of Ki |
| --- | --- |
| O=C(NCCN1CCN(c2cccc(C(F)(F)F)n2)CC1)c1ccc(F)cc1 | 0.20 |
| O=C(NCCCCN1CCN(c2cccc(C(F)(F)F)n2)CC1)c1ccc(F)cc1 | 0.90 |
| O=C(NCCN1CCN(c2cccc(C(F)(F)F)n2)CC1)c1ccccc1 | 0.00 |
| O=C(NCCN1CCN(c2cccc(C(F)(F)F)n2)CC1)c1cccnc1 | 1.70 |
| O=C(NCCN1CCN(c2cc(C(F)(F)F)ccn2)CC1)c1ccc(F)cc1 | 1.30 |

For every listed record, write down its log10 of Ki.
1. CN(CCN1CCN(c2cccc(C(F)(F)F)n2)CC1)C(=O)c1ccc(F)cc1
2. CN(CCCN1CCN(c2cccc(C(F)(F)F)n2)CC1)C(=O)c1ccc(F)cc1

1: 1.50; 2: 1.80

# lookup: log10 of Ki of O=C(NCCCCN1CCN(c2cccc(C(F)(F)F)n2)CC1)c1ccccc1
0.80

====

Molecular target: UniProt P28564
Sequence (P28564 whole entry): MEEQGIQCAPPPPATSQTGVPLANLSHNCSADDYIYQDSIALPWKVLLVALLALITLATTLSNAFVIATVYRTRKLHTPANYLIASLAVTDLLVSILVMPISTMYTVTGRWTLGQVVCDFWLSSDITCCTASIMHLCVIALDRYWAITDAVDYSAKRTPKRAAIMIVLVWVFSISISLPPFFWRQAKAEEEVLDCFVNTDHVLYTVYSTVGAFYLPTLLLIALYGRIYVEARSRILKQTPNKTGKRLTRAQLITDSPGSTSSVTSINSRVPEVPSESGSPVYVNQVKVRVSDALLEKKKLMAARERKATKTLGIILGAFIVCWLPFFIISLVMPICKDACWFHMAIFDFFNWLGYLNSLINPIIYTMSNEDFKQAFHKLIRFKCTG
Assay: serotonin binding activity, 5-HT1B
Settings: average test results; read-out: pKi 5-HT1B (converted)
Can you tell me Ki for the items I'm about to list?

| given.smiles | test.readout | assay.value |
| --- | --- | --- |
| O=C(NCCN1CCN(c2cccc(C(F)(F)F)n2)CC1)c1ccc(F)cc1 | Ki | > 10 µM |
| O=C(NCCCCN1CCN(c2cccc(C(F)(F)F)n2)CC1)c1ccc(F)cc1 | Ki | 0.501 µM |
| O=C(NCCCCN1CCN(c2cccc(C(F)(F)F)n2)CC1)c1ccccc1 | Ki | 1 µM |
| O=C(NCCN1CCN(c2cc(C(F)(F)F)ccn2)CC1)c1ccc(F)cc1 | Ki | 10 µM |
| CN(CCCN1CCN(c2cccc(C(F)(F)F)n2)CC1)C(=O)c1ccc(F)cc1 | Ki | > 10 µM |
| O=C(NCCN1CCN(c2cccc(C(F)(F)F)n2)CC1)c1cccnc1 | Ki | 5.01 µM |
| O=C(NCCN1CCN(c2cccc(C(F)(F)F)n2)CC1)c1ccccc1 | Ki | 10 µM |

Turning now to a further record.
# lookup: Ki of CN(CCN1CCN(c2cccc(C(F)(F)F)n2)CC1)C(=O)c1ccc(F)cc1
> 10 µM
